Below: a set of entries, each annotated with reported AUC.
assay: In vivo pharmacokinetic assay in mice (intravenous injection and oral administration); settings: male, mouse, plasma; C57BL/6 mice, intravenous injection, 1 mg/kg
Please give a number only; it is taken to be in ng·h/mL.

| compound | AUC / ng·h/mL |
| --- | --- |
| C[C@@H](Cc1c[nH]c(=O)c(C(F)(F)F)c1)OC(=O)N1CCN(c2ncc(C(F)(F)F)cn2)CC1 (single isomer, unassigned) [Example 35] | 2570 |
| O=C(OCCc1c[nH]c(=O)c(C(F)(F)F)c1)N1CCN(c2ncc(C(F)(F)F)cn2)CC1 [Example 3] | 10400 |

Entry under test: C[C@@H]1CN(c2ncc(C(F)(F)F)cn2)CCN1C(=O)OCCc1c[nH]c(=O)c(C(F)(F)F)c1 [Example 109] . Its AUC was 8100

---

The following are reported IC50 results, target or system PARP7 (Homo sapiens (Human), UniProt Q7Z3E1).

| compound | IC50 |
| --- | --- |
| C[C@@H]1CN(c2ncc(C(F)(F)F)cn2)C[C@H](C)N1C(=O)OCCc1c[nH]c(=O)c(C(F)(F)F)c1 | 0.71 nM |
| C[C@@H]1CN(c2ncc(C(F)(F)F)cn2)CCN1C(=O)Oc1cccc(-c2c[nH]c(=O)c(C(F)(F)F)c2)c1 | 2.86 nM |
| CNC(=O)c1cnc(N2CCN(C(=O)O[C@@H](C)Cc3c[nH]c(=O)c(C(F)(F)F)c3)CC2)nc1 | 0.5 nM |
| CC(Cc1c[nH]c(=O)c(C(F)(F)F)c1)OC(=O)N1CCN(c2ncc(C(F)(F)F)cn2)CC1 (centres unmarked) | 0.9 nM |

Kindly consider the entry below.
The observed IC50 for C[C@@H](Cc1c[nH]c(=O)c(C(F)(F)F)c1)OC(=O)N1CCN(c2ncc(C(F)(F)F)cn2)[C@H](CO)C1 when tested with PARP7 (Homo sapiens (Human), UniProt Q7Z3E1) stands at 1.5 nM

---

test: In vivo pharmacokinetic assay in mice (intravenous injection and oral administration); conditions: male, mouse, plasma; C57BL/6 mice, intravenous injection, 1 mg/kg; read-out: Vss
Below: a set of entries, each annotated with reported Vd.
Please give a number only; it is taken to be in L/kg.

| compound | unit-abbreviation | Vd |
| --- | --- | --- |
| O=C(OCCc1c[nH]c(=O)c(C(F)(F)F)c1)N1CCN(c2ncc(C(F)(F)F)cn2)CC1 [Example 3] | L/kg | 0.6 |
| C[C@@H](Cc1c[nH]c(=O)c(C(F)(F)F)c1)OC(=O)N1CCN(c2ncc(C(F)(F)F)cn2)CC1 (single isomer, unassigned) [Example 35] | L/kg | 1.5 |

Kindly consider the entry below.
Entry under test: C[C@@H]1CN(c2ncc(C(F)(F)F)cn2)CCN1C(=O)OCCc1c[nH]c(=O)c(C(F)(F)F)c1 [Example 109] . Its Vd was 0.6

---

The following are reported pIC50 results, target or system PARP7 (Homo sapiens (Human), UniProt Q7Z3E1).
In textbook form, pIC50 equals minus log to base ten of the concentration in mol/L.

| molecule | measurement-type | meas-value |
| --- | --- | --- |
| CC(CC(=O)N1CCN(c2ncc(C(F)(F)F)cn2)CC1)c1c[nH]c(=O)c(C(F)(F)F)c1 (stereo not shown) [Example 38] | pIC50 | 8.96 |

The observed pIC50 for O=C(c1cccc(Cc2c[nH]c(=O)c(C(F)(F)F)c2)c1)N1CCN(c2ncc(C(F)(F)F)cn2)CC1 [Example 30] when tested with PARP7 (Homo sapiens (Human), UniProt Q7Z3E1) stands at 9.05

The observed pIC50 for CC(Cc1c[nH]c(=O)c(C(F)(F)F)c1)OC(=O)N1CCN(c2ncc(Cl)cn2)CC1 (stereo not shown) [Example 44] when tested with PARP7 (Homo sapiens (Human), UniProt Q7Z3E1) stands at 9.10

The observed pIC50 for CC(Cc1c[nH]c(=O)c2ccccc12)OC(=O)N1CCN(c2ncc(C(F)(F)F)cn2)CC1 (stereo not shown) [Example 102] when tested with PARP7 (Homo sapiens (Human), UniProt Q7Z3E1) stands at 9.02

---

The following are reported IC50 results, target or system PARP7 (Homo sapiens (Human), UniProt Q7Z3E1).
Please give a number only; it is taken to be in nM.

Example cases with answers are listed next.
| compound-structure | measurement-type | meas-value |
| --- | --- | --- |
| O=C(CCOC[C@H]1CCCN1c1c[nH]c(=O)c(C(F)(F)F)c1)N1CCN(c2ncc(C(F)(F)F)cn2)CC1 | IC50 | 6.7 |
| O=C(OCCc1c[nH]c(=O)c(C(F)(F)F)c1)N1CCN(c2ccc(C(F)(F)F)cn2)CC1 | IC50 | 0.46 |
| O=C(CO[C@H]1CCC[C@@H]1c1c[nH]c(=O)c(C(F)(F)F)c1)N1CCN(c2ncc(C(F)(F)F)cn2)CC1 | IC50 | 0.74 |

Kindly consider the entry below.
The observed IC50 for O=C(CCCc1c[nH]c(=O)c(C(F)(F)F)c1)N1CCN(c2ncc(C(F)(F)F)cn2)CC1 when tested with PARP7 (Homo sapiens (Human), UniProt Q7Z3E1) stands at 0.9

---

Below: a set of entries, each annotated with reported pIC50.
target: PARP7 (Homo sapiens (Human))
Sequence (Q7Z3E1 whole entry): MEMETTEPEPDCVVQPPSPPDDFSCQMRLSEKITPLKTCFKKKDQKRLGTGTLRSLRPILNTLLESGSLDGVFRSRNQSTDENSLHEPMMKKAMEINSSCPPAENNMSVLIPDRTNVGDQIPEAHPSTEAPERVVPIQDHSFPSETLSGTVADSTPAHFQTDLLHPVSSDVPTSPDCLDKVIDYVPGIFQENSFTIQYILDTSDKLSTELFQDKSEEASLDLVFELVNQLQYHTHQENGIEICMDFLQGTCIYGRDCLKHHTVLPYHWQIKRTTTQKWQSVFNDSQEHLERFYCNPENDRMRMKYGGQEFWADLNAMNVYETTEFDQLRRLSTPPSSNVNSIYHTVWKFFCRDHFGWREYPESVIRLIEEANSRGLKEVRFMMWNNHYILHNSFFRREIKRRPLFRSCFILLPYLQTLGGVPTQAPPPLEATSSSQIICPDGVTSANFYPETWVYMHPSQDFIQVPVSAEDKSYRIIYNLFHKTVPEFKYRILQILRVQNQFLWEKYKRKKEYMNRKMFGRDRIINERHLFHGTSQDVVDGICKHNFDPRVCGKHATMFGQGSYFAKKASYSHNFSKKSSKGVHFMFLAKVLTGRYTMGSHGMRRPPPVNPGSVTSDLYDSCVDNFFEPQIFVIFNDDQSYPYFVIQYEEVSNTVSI
In textbook form, pIC50 equals minus log to base ten of the concentration in mol/L.

Example cases with answers are listed next.
| compound | meas-value |
| --- | --- |
| C[C@@H](Cc1c[nH]c(=O)c(C(F)(F)F)c1)OC(=O)N1CCN(c2ncc(C(F)(F)F)cn2)C[C@@H]1CO | 8.85 |
| CC(Cc1c[nH]c(=O)c(C(F)(F)F)c1)OC(=O)N1CCN(c2ncccc2C#N)CC1 (stereo not shown) | 8.71 |
| C[C@@H]1CN(c2ncc(C3CC3)cn2)[C@@H](C)CN1C(=O)O[C@@H](C)Cc1c[nH]c(=O)c(C(F)(F)F)c1 | 9.13 |

Entry under test: Cc1cnc(N2C[C@@H](C)N(C(=O)OCCc3c[nH]c(=O)c(C(F)(F)F)c3)C[C@@H]2C)nc1 . Its pIC50 was 9.05
